Entry source: patent US20200199204A1

target: HIV-1 Env of MB539.2B7 (HIV-1); experiment: cell-based or functional assay
Measured Quantity: neutralization IC50

INPUT: Which neutralization IC50 value belongs to CAP256-VRC26.02 (antibody, V domains shown) VH: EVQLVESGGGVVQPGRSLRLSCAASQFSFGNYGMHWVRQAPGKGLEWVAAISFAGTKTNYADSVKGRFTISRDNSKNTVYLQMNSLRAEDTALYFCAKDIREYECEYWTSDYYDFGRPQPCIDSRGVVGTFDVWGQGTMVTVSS VL: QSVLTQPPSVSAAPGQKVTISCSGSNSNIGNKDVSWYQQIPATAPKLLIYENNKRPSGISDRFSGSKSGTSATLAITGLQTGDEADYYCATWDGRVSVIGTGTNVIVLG ?
OUTPUT: > 50 µg/mL
